The reported measurements were obtained from patent US20210317225A1.

Target: T1, Human CD137 shuffle 1 (amino acids 162-186 replaced by wild boar CD137) (human, amino acids 162-186 from wild …, UniProt Q07011 24-255)
T1 construct: also called shuffle construct 1
T1 chain: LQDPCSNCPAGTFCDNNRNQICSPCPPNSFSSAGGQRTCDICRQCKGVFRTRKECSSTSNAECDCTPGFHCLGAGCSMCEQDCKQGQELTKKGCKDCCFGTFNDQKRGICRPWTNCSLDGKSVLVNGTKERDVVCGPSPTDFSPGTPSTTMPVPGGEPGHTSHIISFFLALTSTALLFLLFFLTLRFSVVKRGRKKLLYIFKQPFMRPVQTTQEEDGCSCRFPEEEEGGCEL
Assay: flow cytometry on transfected HEK293T-17 cells, 1 µg/mL antibody
Parameter Measured: binding result

Binder | Observed
CD137 antibody clone 010 (rabbit) (antibody, human IgG1, kappa, V domains shown, also called Clone 10; CD137 clone 010) VH: QSVEESGGRLVTPGTPLTLTCTVSGFSLSTYAMIWVRQAPGKGLEWIGVVYDNGYISHATWVKGRFTISKTSTTVGLEITSPTTEDTATYFCARSADGSWSTYFNLWGQGTLVTVSS VL: DIVMTQTPASVEAAVGGTVTIKCQASESISNYLAWYQQKPGQPPKLLIYKASTLASGVSSRFKGSGSGTEFTLTISDLESADAATYYCQTNYCCSSSDNGFAFGGGTEVVVKR | binds
CD137 antibody clone 004 (rabbit) (antibody, human IgG1, kappa, V domains shown, also called Clone 4; CD137 clone 004) VH: QSLEESGGRLVTPGTPLTLTCTASGFSLSRYDMSWVRQAPGKGLEYIGVISSSGGTNYANWAKGRFTISKTSTTVDLKITSPTTEDTATYFCAREGDYWDFNLWGPGTLVTVSS VL: AQVLTQTPSSVSAAVGGTVTINCQASQSISNLLAWYQQKPGQPPKLLIYGASTLASGVPSRFSGSGSGTEFTLTISDLESDDAATYYCAGGFPGLDTVAAFGGGTEAVVTR | binds
